System: HCC-2998 colon
Experiment: NCI tumour cell line growth inhibition, 48 h
Task for the reader: assign each of the following compounds its reported TGI.

Inquiry: State its TGI on HCC-2998 colon: Clc1ccc(C2C3COc4ccccc4C3=NN2c2ccccc2)cc1 (centres undefined)
Reply text: > 100 µM

Inquiry: State its TGI on HCC-2998 colon: `O=C1C(c2c(O)[nH]c3ccc(F)cc23)=Nc2ccccc21`
Reply text: > 100 µM

Inquiry: State its TGI on HCC-2998 colon: `CC#CCOC(=O)c1ccccc1OC(C)=O`
Reply text: > 100 µM

Inquiry: State its TGI on HCC-2998 colon: `CO/N=C(\COc1ccc2c(c1)oc(=O)c1cc(OC)ccc12)c1ccc(OC)cc1`
Reply text: > 100 µM

Inquiry: State its TGI on HCC-2998 colon: `CN1CCN(C(=S)N2CCN(C)CC2)CC1`
Reply text: > 100 µM

Inquiry: State its TGI on HCC-2998 colon: COC(=O)/C=C(\C)CC(O)/C=C(\C)CCC=C(C)C (centres undefined)
Reply text: > 100 µM

Inquiry: State its TGI on HCC-2998 colon: CN=C1CC2c3cc(OC)c(OC)cc3CCN2C2=C1C(=O)CC(C)(C)C2 (centres undefined)
Reply text: > 100 µM

Inquiry: State its TGI on HCC-2998 colon: `N#Cc1c(N)n(-c2cccc(C(=O)O)c2)c(=O)c2cc([N+](=O)[O-])ccc12`
Reply text: > 100 µM

Inquiry: State its TGI on HCC-2998 colon: `Cc1ccc(NC(=O)CC2CC2)cc1-c1ccc(C(=O)NCC2CC2)cc1`
Reply text: > 25 µM

Inquiry: State its TGI on HCC-2998 colon: `Cc1cc(S(=O)(=O)Nc2n[nH]c(N)n2)c(SCC(=O)O)cc1Cl`
Reply text: > 10 µM

Inquiry: State its TGI on HCC-2998 colon: `Cc1cc2oc(=N)c(C#N)c(C)c2cc1C`
Reply text: > 100 µM

Inquiry: State its TGI on HCC-2998 colon: `O=C(Cn1c[n+](CC(=O)c2ccc(-c3ccccc3)cc2)c2ccccc21)Nc1cccc2cccnc12`
Reply text: 2.74 µM

Inquiry: State its TGI on HCC-2998 colon: CN1C(=O)N(C)C2C1NN=c1s/c(=C\c3ccc(Cl)cc3Cl)c(=O)n12 (centres undefined)
Reply text: 15.5 µM

Inquiry: State its TGI on HCC-2998 colon: CC(=O)OC12C=CC(=O)N1c1ccccc1C(=O)O2 (centres undefined)
Reply text: > 100 µM

Inquiry: State its TGI on HCC-2998 colon: CCOC1OC(=O)c2cc3ccc4c(c3c(-c3ccc5c(c3)OCO5)c21)OCO4 (centres undefined)
Reply text: 20.3 µM

Inquiry: State its TGI on HCC-2998 colon: `Clc1ccc2[nH]cc(-c3nnnn3-c3ccccc3)c2c1`
Reply text: 20.1 µM

Inquiry: State its TGI on HCC-2998 colon: `N#CCCN(C(=O)Nc1ccccc1)[C@H]1CCCC[C@@H]1N(C(=O)Nc1ccccc1)c1ccccc1`
Reply text: > 100 µM

Inquiry: State its TGI on HCC-2998 colon: O=C1/C(=C/c2ccc3c(c2)OCO3)SC2C=Nc3ccccc3N12 (centres undefined)
Reply text: > 100 µM

Inquiry: State its TGI on HCC-2998 colon: `COc1cc2c(C)cc(O)cc2c2cc(O)c(C)cc12`
Reply text: 24.4 µM

Inquiry: State its TGI on HCC-2998 colon: `NC(=O)C(C(N)=O)=C(O)C(=O)/C=C(\O)c1ccccc1`
Reply text: > 100 µM

Inquiry: State its TGI on HCC-2998 colon: `N#Cc1c(N)nc2n[nH]c(N)c2c1-c1ccc(Cl)cc1`
Reply text: > 64.7 µM

Inquiry: State its TGI on HCC-2998 colon: CC12CC(c3ccccc3O1)C(C(=O)Nc1ccc(Cl)cc1Cl)C(=O)N2 (centres undefined)
Reply text: > 100 µM

Inquiry: State its TGI on HCC-2998 colon: `N#C/C1=C(\N)CCSSSC1`
Reply text: > 100 µM

Inquiry: State its TGI on HCC-2998 colon: CCOC(=O)NC(Nc1ccc(S(=O)(=O)Nc2nc(C)cc(C)n2)cc1)(C(=O)OCC)C(F)(F)F (centres undefined)
Reply text: > 100 µM

Inquiry: State its TGI on HCC-2998 colon: COC(=O)C1=C(O)C(C(=O)OC)[C@]2(O)[C@H](C(=O)OC)[C@H]1C[C@@H](c1ccc(C(F)(F)F)cc1)[C@H]2C(=O)OC (some centres undefined)
Reply text: 14.7 µM

Inquiry: State its TGI on HCC-2998 colon: `CNCC#Cc1c(F)ccc2c1/C(=C/c1[nH]ccc1OC)C(=O)N2`
Reply text: 1.63 µM

Inquiry: State its TGI on HCC-2998 colon: `O=C(Nc1nc(=S)c2c(ncn2CCOC(=O)c2ccccc2)[nH]1)c1ccccc1`
Reply text: > 100 µM

Inquiry: State its TGI on HCC-2998 colon: `C=CCCCCOc1ccccc1-c1cnc(OCCCCC=C)n1C`
Reply text: 21.3 µM

Inquiry: State its TGI on HCC-2998 colon: Cn1nc(C(=O)N2CC(CCl)c3c2cc(N)c2ccccc32)cc1NC(=O)Nc1cc(C(=O)N2CC(CCl)c3c2cc(N)c2ccccc32)nn1C (centres undefined)
Reply text: > 100 µM
